Values compiled from patent US20250289893A1.

# tested_target: T1, human CD1a expressed on cells (human, UniProt P06126 17-327; P61769 21-119)
# T1 construct: also called HEK - CD1a; C1R - CD1a
# method_summary: flow cytometry, C1R cells, 0.1 µg/ml antibody
Would you mind telling me the reported Fluorescence Intensity Geomean (normalized to background) of each entry?
Give bare numbers, in fold over background.

{"binder": "116 (VR12117) (antibody, V domains shown, also called OX116) VH: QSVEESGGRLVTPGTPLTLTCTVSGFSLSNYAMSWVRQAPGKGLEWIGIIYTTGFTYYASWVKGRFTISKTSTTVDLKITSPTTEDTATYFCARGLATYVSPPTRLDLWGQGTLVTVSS VL: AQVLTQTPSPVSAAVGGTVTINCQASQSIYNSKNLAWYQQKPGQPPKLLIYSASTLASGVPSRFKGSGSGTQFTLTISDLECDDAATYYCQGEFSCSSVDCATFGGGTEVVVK", "readout_number": 27}
{"binder": "110 (VR12112) (antibody, V domains shown, also called OX110; antibody 110) VH: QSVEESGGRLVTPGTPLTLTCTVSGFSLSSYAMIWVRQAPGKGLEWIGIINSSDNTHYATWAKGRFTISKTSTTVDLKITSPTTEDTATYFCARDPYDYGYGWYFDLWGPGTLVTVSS VL: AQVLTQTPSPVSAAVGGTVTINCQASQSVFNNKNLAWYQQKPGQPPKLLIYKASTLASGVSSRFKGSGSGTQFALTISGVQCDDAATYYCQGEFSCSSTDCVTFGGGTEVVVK", "readout_number": 25.8}
{"binder": "16 (VR11834) (antibody, V domains shown, also called OX16; antibody 16) VH: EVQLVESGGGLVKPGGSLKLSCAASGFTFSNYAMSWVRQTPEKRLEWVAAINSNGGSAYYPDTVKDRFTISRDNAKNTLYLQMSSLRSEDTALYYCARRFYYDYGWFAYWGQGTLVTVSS VL: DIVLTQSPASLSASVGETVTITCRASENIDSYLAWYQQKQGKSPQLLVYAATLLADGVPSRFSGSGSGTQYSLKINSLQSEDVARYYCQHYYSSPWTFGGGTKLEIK", "readout_number": 10.2}
{"binder": "77A (VR11851) (antibody, V domains shown, also called OX77a; antibody 77a) VH: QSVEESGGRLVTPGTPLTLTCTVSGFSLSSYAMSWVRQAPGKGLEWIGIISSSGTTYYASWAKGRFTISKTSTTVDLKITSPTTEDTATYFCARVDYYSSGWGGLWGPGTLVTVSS VL: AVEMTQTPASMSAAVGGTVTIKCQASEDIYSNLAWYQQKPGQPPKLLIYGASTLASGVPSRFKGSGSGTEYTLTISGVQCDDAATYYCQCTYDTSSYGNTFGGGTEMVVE", "readout_number": 16.4}

Proceeding to the next binder to report its Fluorescence Intensity Geomean (normalized to background).
Recorded Fluorescence Intensity Geomean (normalized to background) for 111 (VR12113) (antibody, V domains shown, also called OX111) VH: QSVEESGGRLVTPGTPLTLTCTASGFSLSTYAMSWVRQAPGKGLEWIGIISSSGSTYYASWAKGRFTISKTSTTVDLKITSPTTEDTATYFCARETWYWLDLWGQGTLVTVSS VL: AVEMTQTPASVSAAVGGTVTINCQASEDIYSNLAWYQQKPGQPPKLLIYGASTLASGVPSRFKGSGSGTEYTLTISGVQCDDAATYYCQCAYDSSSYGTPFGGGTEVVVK , please?
25.4
